These entries and their values trace back to patent US20050234029A1.

Class 1.0: melting point at least 200 °C. Class 0.0: melting point below 200 °C.

Req: Kindly determine if melting point recorded for Cc1cccc(-c2nc3ccccn3c2-c2ccnc(-c3ccc(C(=O)NC4CCOCC4)cc3)c2)n1 [Example 27] is above or exactly 200 °C.
Resp: 0.0

Req: Kindly determine if melting point recorded for Cc1ccn2c(-c3ccnc(-c4ccc(CN5CCOCC5)cc4)c3)c(-c3cccc(C)n3)nc2c1 [Example 22] is above or exactly 200 °C.
Resp: 0.0

Req: Kindly determine if melting point recorded for Cc1cccc(-c2nc3c(C)cccn3c2-c2ccnc(-c3ccc(CN4CCOCC4)cc3)c2)n1 [Example 24] is above or exactly 200 °C.
Resp: 0.0

Req: Kindly determine if melting point recorded for CC(=O)Nc1ccc(-c2cc(-c3c(-c4cccc(C)n4)nc4ccccn34)ccn2)cc1 [Example 10] is above or exactly 200 °C.
Resp: 1.0

###

- target-or-test-system: recombinant GST-ALK5 (residues 198-503) (Homo sapiens, UniProt P36897)
- Construct: assays using recombinant GST-ALK5 (residues 198-503)
- Sequence (P36897 198-503): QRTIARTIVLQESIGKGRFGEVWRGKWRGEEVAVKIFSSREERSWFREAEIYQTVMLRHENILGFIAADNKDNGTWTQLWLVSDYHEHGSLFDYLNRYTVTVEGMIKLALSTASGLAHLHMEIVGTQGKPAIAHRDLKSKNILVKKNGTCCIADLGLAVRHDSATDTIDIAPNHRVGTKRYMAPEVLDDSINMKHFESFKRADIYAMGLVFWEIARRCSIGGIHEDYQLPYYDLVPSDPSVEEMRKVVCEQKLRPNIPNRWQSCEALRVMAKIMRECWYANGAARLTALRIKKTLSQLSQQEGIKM
- procedure-summary: Alk5 fluorescence polarization assay
- details: rhodamine green-labelled ligand 1 nM, ALK5 10 nM, read-out: ALK5 receptor modulator activity (IC50)
endpoint: pIC50
In textbook form, pIC50 equals minus log to base ten of the concentration in mol/L.

Req: Please tell me: pIC50 of Cc1ccn2c(-c3ccnc(-c4ccc(OCCN5CCCC5)cc4)c3)c(-c3cccc(C)n3)nc2c1 , system recombinant GST-ALK5 (residues 198-503) (Homo sapiens, UniProt P36897)?
Resp: 7.82

Req: Please tell me: pIC50 of Cc1cccc(-c2nc3ccccn3c2-c2ccnc(-c3ccc(S(C)(=O)=O)cc3)c2)n1 , system recombinant GST-ALK5 (residues 198-503) (Homo sapiens, UniProt P36897)?
Resp: 7.96

###

Could you please report measured melting point for the items listed next?
Report as a plain number; the unit °C is understood.

Req: Need melting point of CC(=O)Nc1ccc(-c2cc(-c3c(-c4ccccn4)nc4ccccn34)ccn2)cc1 , thanks.
Resp: 133

Req: Need melting point of O=C(c1ccc(-c2cc(-c3c(-c4cccc(F)n4)nc4ccccn34)ccn2)cc1)N1CCOCC1 , thanks.
Resp: 191

Req: Need melting point of Cc1cccc(-c2nc3ccc(Cl)cn3c2-c2ccnc(-c3ccc(CN4CCOCC4)cc3)c2)n1 , thanks.
Resp: 157

Req: Need melting point of Cc1cccc(-c2nc3ccccn3c2-c2ccnc(-c3ccc(OC(F)(F)F)cc3)c2)n1 , thanks.
Resp: 120

Req: Need melting point of CC(=O)c1ccc(-c2cc(-c3c(-c4ccccn4)nc4ccccn34)ccn2)cc1 , thanks.
Resp: 214

Req: Need melting point of Fc1ccc(-c2nc3ccccn3c2-c2ccnc(-c3ccc(CN4CCCC4)cc3)c2)cc1F , thanks.
Resp: 155

Req: Need melting point of Clc1cccc(-c2nc3ccccn3c2-c2ccnc(-c3ccc(OCCN4CCCC4)cc3)c2)c1 , thanks.
Resp: 298

Req: Need melting point of COc1ccc(-c2cc(-c3c(-c4cccc(C)n4)nc4ccccn34)ccn2)cc1 , thanks.
Resp: 174

Req: Need melting point of Cc1cccc(-c2nc3ccc(Cl)cn3c2-c2ccnc(-c3ccc(CN4CCCC4)cc3)c2)n1 , thanks.
Resp: 134

Req: Need melting point of Cc1cccc(-c2nc3ccccn3c2-c2ccnc(-c3ccc(C#N)cc3)c2)n1 , thanks.
Resp: 214

Req: Need melting point of CCN1CCN(C(=O)c2ccc(-c3cc(-c4c(-c5cccc(C)n5)nc5c(C)cccn45)ccn3)cc2)CC1 , thanks.
Resp: 212

Req: Need melting point of Fc1ccc(-c2nc3ccccn3c2-c2ccnc(-c3ccc(CN4CCOCC4)cc3)c2)cc1Cl , thanks.
Resp: 189

Req: Need melting point of Cc1ccn2c(-c3ccnc(-c4ccc(OCCN5CCCC5)cc4)c3)c(-c3cccc(C)n3)nc2c1 , thanks.
Resp: 163

Req: Need melting point of CS(=O)(=O)Nc1ccc(-c2cc(-c3c(-c4cccc(Cl)c4)nc4ccccn34)ccn2)cc1 , thanks.
Resp: 60

Req: Need melting point of O=C(NC1CCOCC1)c1ccc(-c2cc(-c3c(-c4ccccn4)nc4ccccn34)ccn2)cc1 , thanks.
Resp: 179
